System: U2OS
MEASUREMENT NOTES: Multiplex assay against U2OS
Assay type: toxicity, cell-based
PARTICULARS: human, 24 h, 1 µM, compound concentration 1 uM, replicate 1
Non-standard residues stand in square brackets, D forms with d. Residues, ends and D or L forms follow the SMILES beside them.
QUANTITY KIND: Population Membrane Permeable-Phenotype (%)

| COMPOUND | UNIT OF MEASUREMENT | NUMBER |
| --- | --- | --- |
| O=c1ccc2ccc(OCCCCN3CCN(c4cccc5sccc45)CC3)cc2[nH]1 | % | 19 |
| CCC(=O)OCC(=O)[C@@]1(OC(=O)CC)[C@@H](C)C[C@H]2[C@@H]3CCC4=CC(=O)C=C[C@]4(C)[C@@]3(Cl)[C@@H](O)C[C@@]21C [BECLOMETHASONE DIPROPIONATE] | % | 2 |
| Cc1ccc(OCC(O)C(C)NC(C)C)c2c1CCC2.Cl (centres undefined) | % | 5 |
| COc1ccc2[nH]c(I)c(CCNC(C)=O)c2c1 | % | 3 |
| O=C(Nc1cc(-c2ccccc2)nn1-c1ccccc1F)c1ccc([N+](=O)[O-])cc1 | % | 6 |
| CCc1nn2c(C)cc(C)nc2c1Cc1ccc(-c2nnc(C3CCNCC3)o2)cc1 | % | 4 |
| COC(c1ccccc1)(c1ccccc1)[C@H](Oc1nc(C)cc(C)n1)C(=O)O | % | 4 |
| C=CCN1C[C@H](C(=O)N(CCCN(C)C)C(=O)NCC)C[C@@H]2c3cccc4[nH]cc(c34)C[C@H]21 | % | 1 |
| OCCCNc1cc(-c2ccnc(Nc3cccc(Cl)c3)n2)ccn1 | % | 10 |
| Nc1nc(CC(=O)Nc2ccc(CCNC[C@H](O)c3ccccc3)cc2)cs1 | % | 4 |
| Cc1c(Cc2ccc3ccccc3n2)c2cc(F)ccc2n1CC(=O)O | % | 6 |
| Cc1cc(NC(=O)NCCN2CCC(O)(Cc3ccccc3)CC2)c2ccccc2n1 | % | 3 |
| CN(C)C/C=C/C(=O)Nc1ccc(C(=O)N2CCCC(Nc3ncc(Cl)c(-c4c[nH]c5ccccc45)n3)C2)cc1 (centres undefined) | % | 7 |
| C[C@H](NC(=O)CNC(=O)c1cccc(Cl)c1)c1ccccc1 | % | 7 |
| COc1ccc2c(c1OCc1ccccc1)C[C@@H](C(=O)O)N(C(=O)C(c1ccccc1)c1ccccc1)C2 | % | 2 |
| CSc1nc(NC2CCCC2)c([N+](=O)[O-])c(NC2CCCC2)n1 | % | 2 |
| CN1CCC(C(=O)c2cccc(NC(=O)c3c(F)cc(F)cc3F)n2)CC1 | % | 4 |
| CCn1c(-c2nc3cc(C(=O)N4CCCC(N)C4)ccc3n2C)cc2ccccc21.Cl (centres undefined) | % | 6 |
| CN1CCN2c3ccccc3Cc3ccccc3C2C1.Cl (centres undefined) [MIANSERIN HYDROCHLORIDE] | % | 6 |
| CC(C)C[C@@H]1NC(=O)[C@@H](C(C)C)NC(=O)[C@@H]2CCCN2C(=O)[C@@H](CC(=O)O)NC(=O)[C@@H](Cc2c[nH]c3ccccc23)NC1=O [BQ-123] (cyclo(L[dW][dD]P[dV])) | % | 2 |
| COc1c(Nc2ccc(S(C)(=O)=O)nc2C)ncnc1OC1CCN(C(=O)OC(C)C)CC1 | % | 7 |
| COc1cc(OC2CCN(C(C)=O)CC2)ccc1C(=O)N1CCC(N2C(=O)OCc3ccccc32)CC1 | % | 3 |
| Cc1nn(C)c2nc(NNC(=O)Nc3cc(Cl)nc(Cl)c3)cc(C(C)C)c12 | % | 4 |
| CN1CCN(c2ccc(Nc3c4ccccc4nc4ccccc34)cc2)CC1.Cl.Cl.O | % | 10 |
| CC(C)C[C@H](CO)Nc1nc(S[C@@H](C)c2ccccc2)nc2nc(N)sc12 | % | 2 |
| Cn1cc(C(=O)OCC2CCN(CCNS(C)(=O)=O)CC2)c2ccccc21 | % | 4 |
| Cc1cc(O)c(-c2ccc([C@@H](C)CN(C)C)cc2)c2c1[nH]c(=O)c1sccc12 | % | 20 |
| Cc1sc2c(c1C)C(c1ccc(Cl)cc1)=N[C@H](CC(=O)OC(C)(C)C)c1nnc(C)n1-2 | % | 5 |
| CN(C)C(=O)Cn1cc(-c2ccc(-c3nnc4ccccn34)cc2)cn1 | % | 4 |
| CCCCCCNC(=O)Nc1ccc(S(=O)(=O)Nc2ccc(CCNC[C@H](O)COc3ccc(O)cc3)cc2)cc1 | % | 5 |
| O=C(NCCNCC(O)COc1ccc(O)cc1)N1CCOCC1.O=C(NCCNCC(O)COc1ccc(O)cc1)N1CCOCC1.O=C(O)/C=C/C(=O)O (centres undefined) [XAMOTEROL FUMARATE] | % | 5 |
| COCCCN1CCC(NC(=O)c2cc(Cl)c(N)c3c2OCC3)CC1 [PRUCALOPRIDE] | % | 5 |
| C[C@@H]1CC(=O)Nc2cccc(-c3ccc4c(c3)c(-c3cnn(C)c3)nn4C)c2N1 | % | 5 |
| Nc1nc(-c2ccco2)c2cnn(Cc3ccccc3F)c2n1 | % | 4 |
